# System: 227483-062-R1-J1-PDC complex spheroids with HUVEC/MSC, viability
# Measurement Protocol: Anticancer human tumor 227483-062-R1-J1-PDC patient-derived pancreatic carcinoma cell line growth inhibition [CLK]; active = viability on the fitted dose curve at most 10% of control; inactive = the rest
# Study Conditions: second compound 0.316 µM; first compound 10 µM
Outcome codes: active, inactive

- Compound: "O=c1[nH]cc(F)c(=O)[nH]1 + CN1CCN(c2cc(C(=O)Nc3cc4cc(-c5cnn(C)c5)ccc4cn3)ccn2)CC1"
  Experimental System: "227483-062-R1-J1-PDC complex spheroids with HUVEC/MSC, viability"
  Discrete Label: "active"
- Compound: "CC(=O)O[C@H]1C(=O)[C@@]2(C)[C@H]([C@H](OC(=O)c3ccccc3)[C@]3(O)C[C@H](OC(=O)[C@H](O)[C@@H](NC(=O)c4ccccc4)c4ccccc4)C(C)=C1C3(C)C)[C@]1(OC(C)=O)CO[C@@H]1C[C@@H]2O + CN1CCN(c2cc(C(=O)Nc3cc4cc(-c5cnn(C)c5)ccc4cn3)ccn2)CC1"
  Experimental System: "227483-062-R1-J1-PDC complex spheroids with HUVEC/MSC, viability"
  Discrete Label: "active"
- Compound: "C=C(F)C(=O)N1CCN(c2nc(OCC3CCCN3C)nc3c2CCN(c2cccc4cccc(Cl)c24)C3)CC1CC#N (stereo not given) + CN1CCN(c2cc(C(=O)Nc3cc4cc(-c5cnn(C)c5)ccc4cn3)ccn2)CC1"
  Experimental System: "227483-062-R1-J1-PDC complex spheroids with HUVEC/MSC, viability"
  Discrete Label: "active"
- Compound: "CC(CO)NC(=O)c1cc(-c2ccc(Cl)cc2)nn(-c2cnn(C)c2)c1=O (stereo not given) + CNC(=O)c1ccc(Nc2nc(OC3CCCC3)c3c(-c4ccc5nc(C)oc5c4)c[nH]c3n2)c(OC)c1"
  Experimental System: "227483-062-R1-J1-PDC complex spheroids with HUVEC/MSC, viability"
  Discrete Label: "inactive"
- Compound: "C#Cc1c(F)ccc2cc(O)cc(-c3ncc4c(N5CC6CCC(C5)N6)nc(OCC56CCCN5CC(F)C6)nc4c3F)c12 (stereo not given) + CNC(=O)c1ccc(Nc2nc(OC3CCCC3)c3c(-c4ccc5nc(C)oc5c4)c[nH]c3n2)c(OC)c1"
  Experimental System: "227483-062-R1-J1-PDC complex spheroids with HUVEC/MSC, viability"
  Discrete Label: "inactive"

====

# Test system: 227483-062-R1-J1-PDC complex spheroids with HUVEC/MSC, viability
# Measurement Protocol: Anticancer human tumor 227483-062-R1-J1-PDC cell line growth inhibition [CLK];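 note: spheroids exposed to compounds for seven days before readout; percent of DMSO vehicle control luminescence as 100% viability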
# Study Conditions: second compound 1 µM; first compound 0.0316 µM; stronger effect = lower value

- Compound: "O=c1[nH]cc(F)c(=O)[nH]1 + CNC(=O)c1ccc(Nc2nc(OC3CCCC3)c3c(-c4ccc5nc(C)oc5c4)c[nH]c3n2)c(OC)c1"
  viability, T/C, %: 80.6
- Compound: "C=C(F)C(=O)N1CCN(c2nc(OCC3CCCN3C)nc3c2CCN(c2cccc4cccc(Cl)c24)C3)CC1CC#N (stereo not drawn) + CNC(=O)c1ccc(Nc2nc(OC3CCCC3)c3c(-c4ccc5nc(C)oc5c4)c[nH]c3n2)c(OC)c1"
  viability, T/C, %: 79.6
- Compound: "CC1COCCN1c1cc(C2(S(C)(=N)=O)CC2)nc(-c2ccnc3[nH]ccc23)n1 (stereo not drawn) + CNC(=O)c1ccc(Nc2nc(OC3CCCC3)c3c(-c4ccc5nc(C)oc5c4)c[nH]c3n2)c(OC)c1"
  viability, T/C, %: 76.8
